80 nM FC (mGrn mRNA) values for the substances below.
Tested on: mGrn mRNA
Test: mGrn mRNA qPCR in Neuro2a cells transfected with ASOs
Assay type: cell-based, mouse
Conditions: Table 15; Neuro2a, 80 nM, transfection
Oligonucleotides are written 5' to 3', each unit as a sugar letter and its base; * is a phosphorothioate linkage, no mark a phosphodiester; rarer units and linkages stand in square brackets, end groups in braces. Plain capitals give the bases only. e = 2'-O-(2-methoxyethyl) (MOE); l = locked nucleic acid (LNA); [5mC] = 5-methylcytosine
// return numeric value only (unit: FC, not printed)

1) CO-5294: CO-3544 modified to include PO/PS bonds (antisense eG*eT*eT*e[5mC]*eT*e[5mC]*e[5mC]*e[5mC]*eT*eA*eGe[5mC]eTeGeTeGeT*eA*eG*eT) : 1.1
2) CO-5290: CO-3544 modified to include PO/PS bonds (antisense eG*eT*eTe[5mC]eTe[5mC]e[5mC]e[5mC]eTeAeGe[5mC]eTeGeTeGeT*eA*eG*eT) : 1.0

Data request: I'd like to know its 80 nM FC (mGrn mRNA). The substance in question is CO-5293: CO-3544 modified to include PO/PS bonds (antisense GTTCTCCCTAGCTGTGTAGT; 2'-MOE, mixed PS/PO, 5-methylcytosine; listed as RNA; modified_base 1..9: mod_base = OTHER; note = Phosphorothioate linkage; modified_base 17..20: mod_base = OTHER; modified_base 1..20: mod_base = OTHER; note = 2'-O-(2-methoxyethyl) ribonucleotide; modified_base 4)
Data returned: 1.0

Data request: I'd like to know its 80 nM FC (mGrn mRNA). The substance in question is CO-5291: CO-3544 modified to include PO/PS bonds (antisense eG*eT*eT*e[5mC]*eTe[5mC]e[5mC]e[5mC]eTeAeGe[5mC]eTeGeTeGeT*eA*eG*eT)
Data returned: 1.0

Data request: I'd like to know its 80 nM FC (mGrn mRNA). The substance in question is CO-5301: CO-3544 modified to include PO/PS bonds (antisense lG*lT*eT*l[5mC]*lT*e[5mC]*l[5mC]*e[5mC]*lT*eA*lG*e[5mC]*lT*eG*lT*eG*lT*eA*lG*lT)
Data returned: 1.0
